Assay: In vivo microdialysis pharmacokinetics of LVFX without transporter inhibitors
Parameters: species or system rat
Details: rat, brain ECF, iv, 50 mg/kg, brain ECF; Group 1: vehicle solution of Tariquidar/Ko143 + LVFX 50 mg/kg; mean ± SD, n=3
assay-readout: AUC(0-inf) (µg·h/mL)
Write down the numeric answer in µg·h/mL and omit the unit.

Recorded AUC(0-inf) for C[C@H]1COc2c(N3CCN(C)CC3)c(F)cc3c(=O)c(C(=O)O)cn1c23 , please?
3.73

###

Test: In vivo microdialysis pharmacokinetics of LVFX without transporter inhibitors
Parameters: species or system rat
Conditions: rat, iv; blood; Group 3: physiological saline alkalinized with NaOH (pH 9.0–9.2) + LVFX 50 mg/kg; n=3
assay-readout: Tmax (min)
Write down the numeric answer in min and omit the unit.

Recorded Tmax for C[C@H]1COc2c(N3CCN(C)CC3)c(F)cc3c(=O)c(C(=O)O)cn1c23 [LVFX, Levofloxacin] , please?
15

###

Molecular target: Breast cancer resistance protein (BCRP) (Rattus norvegicus)
Construct: from tissue; host or cells: living rat (blood-brain barrier, choroid plexus)
Sequence (Q80W57 1-657): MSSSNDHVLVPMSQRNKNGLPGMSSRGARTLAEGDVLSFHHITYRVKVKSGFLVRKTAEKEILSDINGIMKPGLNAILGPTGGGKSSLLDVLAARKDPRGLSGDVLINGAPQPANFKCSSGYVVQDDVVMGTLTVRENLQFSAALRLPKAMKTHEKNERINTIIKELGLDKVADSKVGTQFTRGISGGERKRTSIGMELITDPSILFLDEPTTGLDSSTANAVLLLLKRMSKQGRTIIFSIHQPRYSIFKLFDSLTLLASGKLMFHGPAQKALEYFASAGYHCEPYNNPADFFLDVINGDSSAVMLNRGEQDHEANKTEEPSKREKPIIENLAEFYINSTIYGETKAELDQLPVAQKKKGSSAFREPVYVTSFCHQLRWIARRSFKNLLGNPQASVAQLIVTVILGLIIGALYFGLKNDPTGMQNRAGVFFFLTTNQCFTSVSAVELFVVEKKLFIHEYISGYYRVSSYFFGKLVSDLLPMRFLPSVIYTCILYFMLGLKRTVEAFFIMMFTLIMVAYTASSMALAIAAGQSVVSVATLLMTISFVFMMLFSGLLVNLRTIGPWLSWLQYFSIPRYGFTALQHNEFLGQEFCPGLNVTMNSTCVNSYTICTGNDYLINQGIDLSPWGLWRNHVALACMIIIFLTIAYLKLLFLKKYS
Assay: In vivo microdialysis pharmacokinetics of LVFX with BCRP inhibitor Ko143
Details: intravenous, with Ko143 15 mg/kg i.p., 30 min before LVFX, blood, Ko143 group, Ko143 15 mg/kg i.p. + LVFX 50 mg/kg, mean ± SD, N=5
assay-readout: MRT (h)
Write down the numeric answer in h and omit the unit.

Recorded MRT for C[C@H]1COc2c(N3CCN(C)CC3)c(F)cc3c(=O)c(C(=O)O)cn1c23 , please?
1.13

###

Assay: In vivo microdialysis pharmacokinetics of LVFX without transporter inhibitors
Set-up: species or system rat
Conditions: rat, CSF (lateral ventricle microdialysate), iv, 50 mg/kg, pH 9, CSF; Group 3: physiological saline alkalinized with NaOH (pH 9.0–9.2) + LVFX 50 mg/kg; mean ± SD, n=3
assay-readout: Cmax (ng/mL)
Write down the numeric answer in ng/mL and omit the unit.

Recorded Cmax for C[C@H]1COc2c(N3CCN(C)CC3)c(F)cc3c(=O)c(C(=O)O)cn1c23 , please?
3700
